- Tested on: corn
- assay.remarks: Test A postemergence
- Assay type: in vivo, Zea mays
- run.parameters: 500 g ai/ha, 0 to 100 scale (0 no effect, 100 complete control), approx. 10 d
Entries and their Plant response rating, Corn values follow.
Respond numerically, and do not add a unit to the figure.

According to the records, this compound CCCOc1nc(-c2ccccc2)nn1Cc1ccnc(C(F)(F)F)c1 displays Plant response rating, Corn of 30

According to the records, this compound CCCOc1nc(-c2ccc(F)cc2)nn1Cc1ccnc(C(F)(F)F)c1 displays Plant response rating, Corn of 30

According to the records, this compound CCCn1nc(-c2ccc(F)cc2)nc1C(O)c1ccnc(C(F)(F)F)c1 (stereo not drawn) displays Plant response rating, Corn of 50

According to the records, this compound CCOc1nc(-c2ccccc2)nn1Cc1ccnc(C(F)(F)F)c1 displays Plant response rating, Corn of 70

According to the records, this compound CCc1nc(-c2cccc(C(F)(F)F)c2)nn1Cc1ccnc(C(F)(F)F)c1 displays Plant response rating, Corn of 50

According to the records, this compound FC(F)(F)COc1nc(-c2ccc(Cl)cc2)nn1Cc1ccnc(C(F)(F)F)c1 displays Plant response rating, Corn of 30
